Where do the numbers come from? From paper PMC12864922.

# Measured target: TDP-43 (Homo sapiens, UniProt Q13148 1-414)
# Sequence (Q13148 whole entry): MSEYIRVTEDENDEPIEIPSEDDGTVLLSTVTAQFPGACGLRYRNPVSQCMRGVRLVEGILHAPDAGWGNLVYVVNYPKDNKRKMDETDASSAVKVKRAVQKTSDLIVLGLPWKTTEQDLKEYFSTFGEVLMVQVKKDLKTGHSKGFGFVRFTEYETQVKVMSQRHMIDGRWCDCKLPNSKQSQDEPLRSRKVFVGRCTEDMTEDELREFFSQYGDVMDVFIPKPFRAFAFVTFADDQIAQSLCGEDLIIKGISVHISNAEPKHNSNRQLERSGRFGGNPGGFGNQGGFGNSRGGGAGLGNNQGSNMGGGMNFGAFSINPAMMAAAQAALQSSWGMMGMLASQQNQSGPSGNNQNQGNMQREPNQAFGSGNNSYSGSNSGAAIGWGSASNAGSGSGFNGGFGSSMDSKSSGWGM
# Experimental protocol: RNA Bind-n-Seq with designed 260-mer pool; 25 mM Tris-HCl, 150 mM KCl, 3 mM MgCl2, BSA (printed 500 mg/mL), 20 units/mL SUPERase IN; pH not stated; 500 nM RNA pool, 1 h, 4 C; TDP-43 5, 50, 500 nM; high values mean tight binding
# Test settings: protein: recombinant; tags: SBP (GST cleaved off with PreScission; pGEX-GST-SBP)
The full ranking holds about 9,900 sequences; the median of “r (bound/input frequency ratio)” is about 0.7, and the highest 2% start at about 6.5. Many of the other results were omitted from the sample, so the highest values are more common in it than they were.
Measured endpoint: binding signal

Exercise: Requested read-out: binding signal. Entry: ENSMUSG00000028439.138|Fam219a (ssRNA) RNA: GGGAGUUCUACAGUCCGACGAUCGCUUCGAUAUCCGCAUGCUAUGUCUCUCUGCCUCAUCCCCACACCGCCCUGCCACCCCCAGUCUUCUGUCUAUUGGUUCCAGGCUGGAAGCAAGAGAUAAGGCUGGCCUCCUGUGCCCCAUUGCCAUUUCACCCUAGCUCAAAGUCCAGGAGCCAGGCUUCCAGAAAGGCUCUUCAAGAGCAAGCUUAAGGAAAUACAGUGAGCCAAGUGGCUGUAUGAUAUGGUAUGGUAUGGUAUGGUAUGGUAUGGUAUGGUAUGCACAUGUGUGUGCAUGUGUGUGCUCUUGCGGUCGCACUAGUGUGGAAUUCUCGGGUGUCAAGG
Key: 1.6 R (bound/input frequency ratio)
